experiment: NCI Yeast Anticancer Drug Screen. Data for the sgs1 mgt1 strain (AID 161);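 note: 0% = growth of cultures given vehicle only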; details: S. cerevisiae sgs1 mgt1 strain, at 50.0 µM, active compounds read high
Compounds without any hit were thinned out: in the full panel of roughly 79,000, 15% have a hit.
property measured: growth inhibition (%)
Answers are plain numbers, in %.

Solved entries:
• N#CC(c1ccccc1)c1ccccn1 (stereo not drawn) = 8.75
• O=C(O)CCc1ccccc1-c1ccccc1C(=O)O = -2.45
• Cc1ccc(-c2nc3scc(C)n3n2)cc1 = -4.5
• CCOC(=O)c1ccc(C)cc1F = 0.2
• CCOC(=O)C(C(=O)OCC)C(C(=O)OCC)(C(=O)OCC)C(C(=O)OCC)C(=O)OCC = 1.85

# map each compound to its growth inhibition
1. OCc1ccccc1O
2. Cc1c(C)n2c(=O)n(-c3ccccc3)c(=O)n2c1=O

Result:
[-6.55, -5.55]

###

test: NCI Yeast Anticancer Drug Screen. Data for the rad50 strain (AID 155);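 note: 0% = growth of vehicle-only cultures of the same strain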; details: S. cerevisiae rad50 strain growth inhibition; at 50.0 µM; active compounds read high
The panel holds about 79,000 compounds, 15% with a hit somewhere; the sample as a whole holds those more often.
Answer each item with its documented growth inhibition.
One number for each entry, in %.

# map each molecule to its growth inhibition
1. CCOC(=O)C1CCCCN1C(=O)OCc1ccccc1 (stereo not drawn)
2. [O-][n+]1c(/C=C/c2cccc3ccccc23)cccc1/C=C/c1cccc2ccccc12
3. COC1/C=C/OC2(C)Oc3c(C)c(O)c4c(O)c(c(C=NNC(=O)c5ccc(N)cc5)c(O)c4c3C2=O)NC(=O)/C(C)=C/C=C/C(C)C(O)C(C)C(O)C(C)C(OC(C)=O)C1C (stereo not drawn)
4. O=Cc1cc2ccccc2c2ccccc12

Result:
1. -6.95
2. -8.6
3. -3.55
4. -23.2

# map each molecule to its growth inhibition
1. CCOc1cc2c(cc1OC)c[n+](C)c1c3cc(OC)c(OC)cc3ccc21
2. NNC(=O)CCCCCCO
3. CC1(C)CCc2cc3c(O)c(-c4ccccc4)c(=O)oc3cc2O1
4. O=C1c2ccccc2C(=O)N1CCCSc1ccc(F)cc1
5. COc1ccc(OC)c2nc3c(C(=O)NCCN(C)C)cccc3nc12

Result:
1: 22.5; 2: 5.3; 3: -9.45; 4: 32.8; 5: -15.7

# map each molecule to its growth inhibition
1. CC(C)OC(=O)Nc1cccc(C(=O)O)c1
2. Cc1ccc(S/C=C/C(=O)Nc2ccccc2)cc1

Result:
[-6.55, -10.8]

# map each molecule to its growth inhibition
1. O=C1CN(c2ccc(Cl)cc2)C(=O)CN1CCN1CC(=O)N(c2ccc(Cl)cc2)CC1=O
2. C[Si](C)(C)O[Si](C)(C)CCl
3. CCCCc1ccc(O)c(CN(CC)CC)c1
4. CCN(CC)CCOC(=O)c1ccc(Cl)c(Cl)c1
5. C[n+]1cccc(NC(=O)COc2ccc(Cl)c(Cl)c2)c1
6. C=C(Br)CNC(=O)Nc1ccc(Cl)c(Cl)c1

Result:
1. -43.5
2. -28.9
3. 10.8
4. 13.8
5. 15.3
6. -0.3

# map each molecule to its growth inhibition
1. NC1C2C3C=CC(C3)C12 (stereo not drawn)
2. Cc1ccc(S(=O)(=O)OC/C(=C(/c2ccccc2)c2ccc(Cl)cc2)c2ccccc2)cc1
3. CN1c2ccccc2C(=O)NC12CCN(CC1COc3ccccc3O1)CC2 (stereo not drawn)

Result:
[12.5, 96.8, 58.1]

# map each molecule to its growth inhibition
1. O=C(Oc1c(Cl)c(Cl)c(Cl)c(Cl)c1Cl)c1ccc([N+](=O)[O-])cc1
2. CC(=O)N/C(=C\c1ccc(Cc2nc3c([nH]2)C(=O)c2ccccc2C3=O)cc1)c1nc2c([nH]1)C(=O)c1ccccc1C2=O
3. CCc1ccc[n+](-c2ccncc2CC)c1
4. Oc1ccc(O)c(CCCc2cc(O)ccc2O)c1
5. Cc1ccccc1-c1ccccc1
6. O=c1c2ccccc2c(=O)n2n1CC=CC2
7. O=c1oc2cc(O)ccc2cc1-c1nc2ccccc2o1
8. BrCCC[n+]1ccc2ccccc2c1-c1nccc2ccccc12

Result:
[-27.6, -7.5, -7.9, 13.3, 14.8, -6.45, -2.1, 50.7]

# map each molecule to its growth inhibition
1. CSCC[C@H]1C(=O)N=C(N)N1C(=O)OCc1ccccc1
2. CC(C)N(C(=O)C12C3C4C5C3C1(C(=O)N(C(C)C)C(C)C)C5(C#N)C42)C(C)C (stereo not drawn)
3. Cc1ccc2nc(-c3ccc(N=NNc4ccc(-c5nc6ccc(C)c(S(=O)(=O)O)c6s5)cc4)cc3)sc2c1S(=O)(=O)O
4. CCCn1c(SCC)c2ccccc2c1-c1nc(F)nc(F)n1
5. NC(=S)c1ccccn1
6. CNCCC(=O)c1ccccc1

Result:
1. -5.7
2. 22.6
3. 23.5
4. -11.8
5. 18.6
6. -20.9

# map each molecule to its growth inhibition
1. O=C(O)C1CCCCC1O (stereo not drawn)
2. Cc1cc2c(=O)[nH]cnc2[nH]1

Result:
1: -11.6; 2: -5.6
